Target Or Test System: IDO1 (Homo sapiens)
Sequence (P14902 whole entry): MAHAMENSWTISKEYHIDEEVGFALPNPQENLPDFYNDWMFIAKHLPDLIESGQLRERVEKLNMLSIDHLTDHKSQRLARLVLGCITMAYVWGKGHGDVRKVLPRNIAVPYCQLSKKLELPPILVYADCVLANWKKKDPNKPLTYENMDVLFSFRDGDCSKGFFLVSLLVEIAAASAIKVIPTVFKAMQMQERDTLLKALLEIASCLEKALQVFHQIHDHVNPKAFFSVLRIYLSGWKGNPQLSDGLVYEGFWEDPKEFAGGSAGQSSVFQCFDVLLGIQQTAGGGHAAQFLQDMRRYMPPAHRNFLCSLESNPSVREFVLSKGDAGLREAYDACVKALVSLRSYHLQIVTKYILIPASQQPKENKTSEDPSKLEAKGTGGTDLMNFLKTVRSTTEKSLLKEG
Assay Name: IDO1 Human Whole Blood Assay
Format: cell-based
Set-up: Human whole blood was drawn in sodium heparin coated tubes from healthy internal donors; from tissue; host or cells: human whole blood from healthy donors, stimulated with LPS and IFNγ
Test Conditions: LPS and IFNγ 100 ng/mL, overnight (18 h), kynurenine by LC/MS/MS
Procedure: IDO1 Human Whole Blood Assay Compounds to be tested were serially diluted in ten 3-fold steps in DMSO starting from 10 mM. […] On day 2, isotope labeled standard solutions of kynurenine and tryptophan was made in water at 10× concentration and 30 μL was added to the blood at 3 μM final concentration. […] 20 μL of supernatant was carefully transferred to a 384 well plate containing 40 μL of 0.1% formic acid in water and analyzed by LC/MS/MS. […]
pIC50: −log10 of the molar value.
Reported Metric: pIC50

Worked examples follow.
Challenge: Quick check: pIC50 of Cc1cccc(C2CCN(C(=O)Cn3nc(C(=O)N4CCN(C(=O)CO)CC4)c4c3C[C@H]3C[C@@H]43)CC2)c1C ?
Response given: 7.23

Challenge: And what about the compound Cc1cccc(C2CCN(C(=O)Cn3nc(C(=O)N4CC[C@H](O)[C@@H](C)C4)c4c3C[C@H]3C[C@@H]43)CC2)c1C ?
Response given: 6.48

1: Cc1cccc(C2(F)CCN(C(=O)Cn3nc(C(=O)N4CCC(O)CC4)c4c3CCC4)CC2)c1C
2: Cc1cccc(C2CCN(C(=O)Cn3nc(C(=O)N4CCC(OCCO)CC4)c4c3CCC4)CC2)c1C
3: Cc1cccc(C2CCN(C(=O)Cn3nc(C(=O)N4CC[C@@H](O)[C@@H](F)C4)c4c3CCCC4)CC2)c1C
4: Cc1cccc(C2(F)CCN(C(=O)Cn3nc(C(=O)N4C[C@@H](C)O[C@@H](C)C4)c4c3CCC4)CC2)c1C
5: Cc1cccc(C2CCN(C(=O)Cn3nc(C(=O)N4CC[C@@H](O)[C@@H](F)C4)c4c3CCC4)CC2)c1C
Challenge: Descending sort on pIC50 required. Form entry: ranked labels (order as requested).
Response given: 2, 3, 5, 4, 1
(2: 7.51, 3: 6.66, 5: 6.31, 4: 5.92, 1: 5.47)
